Reference for the values: PubChem BioAssay (EPA / NIEHS)

molecular target: Protein deacetylase HDAC6 (Homo sapiens) (UniProt Q9UBN7); assay: NVS_ENZ_hHDAC6: NovaScreen (NVS) Enzymatic Assay for human Histone Deacetylase 6 (HDAC6) (AID 2283164)
Sequence (Q9UBN7 whole entry, looked up): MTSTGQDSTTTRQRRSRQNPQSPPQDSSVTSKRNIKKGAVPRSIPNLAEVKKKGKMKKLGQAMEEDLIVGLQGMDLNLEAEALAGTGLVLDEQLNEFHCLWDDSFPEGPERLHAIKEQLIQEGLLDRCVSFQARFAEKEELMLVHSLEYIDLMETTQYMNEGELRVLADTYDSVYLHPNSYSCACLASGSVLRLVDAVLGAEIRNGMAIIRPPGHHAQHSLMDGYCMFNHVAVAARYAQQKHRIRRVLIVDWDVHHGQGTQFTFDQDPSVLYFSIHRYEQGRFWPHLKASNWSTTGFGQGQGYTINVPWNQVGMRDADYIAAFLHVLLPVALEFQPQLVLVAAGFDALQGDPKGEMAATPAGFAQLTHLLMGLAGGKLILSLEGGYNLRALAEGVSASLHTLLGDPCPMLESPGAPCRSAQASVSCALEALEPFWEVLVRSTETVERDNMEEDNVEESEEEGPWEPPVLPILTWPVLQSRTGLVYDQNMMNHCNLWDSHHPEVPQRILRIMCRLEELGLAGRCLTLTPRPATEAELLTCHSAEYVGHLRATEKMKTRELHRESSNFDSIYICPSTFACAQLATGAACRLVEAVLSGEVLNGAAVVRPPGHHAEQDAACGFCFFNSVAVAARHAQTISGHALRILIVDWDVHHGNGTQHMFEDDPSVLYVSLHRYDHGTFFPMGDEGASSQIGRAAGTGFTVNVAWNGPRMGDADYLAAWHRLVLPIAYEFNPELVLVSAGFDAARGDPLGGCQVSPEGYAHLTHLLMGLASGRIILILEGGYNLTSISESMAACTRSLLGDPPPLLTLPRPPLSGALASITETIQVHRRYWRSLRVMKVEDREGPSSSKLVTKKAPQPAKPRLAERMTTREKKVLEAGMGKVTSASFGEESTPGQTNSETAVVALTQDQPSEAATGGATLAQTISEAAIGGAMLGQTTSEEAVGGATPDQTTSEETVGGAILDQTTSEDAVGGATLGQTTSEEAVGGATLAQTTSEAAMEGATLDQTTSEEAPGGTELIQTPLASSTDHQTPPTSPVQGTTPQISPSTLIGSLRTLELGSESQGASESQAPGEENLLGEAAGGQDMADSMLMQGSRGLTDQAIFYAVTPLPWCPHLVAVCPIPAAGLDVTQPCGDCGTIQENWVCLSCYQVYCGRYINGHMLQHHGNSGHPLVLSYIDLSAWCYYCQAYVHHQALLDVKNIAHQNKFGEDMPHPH
Records with an inconclusive call do not appear. Calls of active or inactive are those of the source. The calls were made as follows: active = hit-call score of the fitted dose curve at least 0.9, where 1 is the maximum; inconclusive = response in the unintended direction; inactive = score below 0.9.
quantity name: outcome

>  <smiles representation>
CCCCCCCCCCCCc1ccccc1

>  <observed value>
inactive

$$$$
>  <smiles representation>
CC(N)=O

>  <observed value>
inactive

$$$$
>  <smiles representation>
O=c1[nH]cnc2c1ncn2[C@H]1CC[C@@H](CO)O1

>  <observed value>
inactive

$$$$

====

test: ACEA_ER_AUC_viability: ACEA Biosciences xCELLigence Real-Time Cell Analysis on Estrogen Receptor Agonism for Viability (AID 2283782);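 also: continuous compound exposure with impedance area under curve over 80 h; hit means loss of impedance signal meaning reduced cell growth or viability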
Results filed as inconclusive are left out. The source made the active and inactive calls. The calls were made as follows: active = hit-call score of the fitted dose curve at least 0.9, where 1 is the maximum; inconclusive = response in the unintended direction; inactive = score below 0.9.

>  <molecule>
CCC(=O)c1ccc(Cl)cc1

>  <AC50>
inactive

$$$$
>  <molecule>
O=CNC(N1CCN(C(NC=O)C(Cl)(Cl)Cl)CC1)C(Cl)(Cl)Cl (configuration not stated)

>  <AC50>
inactive

$$$$
>  <molecule>
CCC[N+](=O)[O-]

>  <AC50>
inactive

$$$$
>  <molecule>
CCCCCCCCCCCCCCCC[N+](C)(C)C

>  <AC50>
10.9 µM (active)

$$$$
>  <molecule>
CCCCCCCCCCCC#N

>  <AC50>
inactive

$$$$
>  <molecule>
C[N+](C)(C)CC(=O)O

>  <AC50>
25.6 µM (active)

$$$$
>  <molecule>
CC(C)C#N

>  <AC50>
inactive

$$$$
>  <molecule>
CCCC=NO

>  <AC50>
inactive

$$$$
>  <molecule>
Nc1ccc([N+](=O)[O-])cc1N

>  <AC50>
50 µM (active)

$$$$
>  <molecule>
O=C(O)C(Br)Br

>  <AC50>
inactive

$$$$
>  <molecule>
C[C@]12CC[C@H](O)C[C@H]1CC[C@@H]1[C@@H]2C[C@@H](O)[C@]2(C)[C@@H](C3=CC(=O)OC3)CC[C@]12O

>  <AC50>
1.75 µM (active)

$$$$
>  <molecule>
CC(C)(c1cc(Cl)c(O)c(Cl)c1)c1cc(Cl)c(O)c(Cl)c1

>  <AC50>
90.8 µM (active)

$$$$
>  <molecule>
CC(C)(O)C#N

>  <AC50>
inactive

$$$$
>  <molecule>
C=CC(=O)OCC(CC)CCCC (configuration not stated)

>  <AC50>
inactive

$$$$
>  <molecule>
CC(O)CN(CC(C)O)CC(C)O (configuration not stated)

>  <AC50>
inactive

$$$$
>  <molecule>
CC1(C)CC(=O)CC(C)(C)N1[O]

>  <AC50>
inactive

$$$$
>  <molecule>
CC1CCC(=O)O1 (configuration not stated)

>  <AC50>
50 µM (active)

$$$$
>  <molecule>
CN(C)N

>  <AC50>
inactive

$$$$
>  <molecule>
O=C(NCNC(=O)NC1C(=O)NC(=O)N1CO)NC1C(=O)NC(=O)N1CO (configuration not stated)

>  <AC50>
9.92 µM (active)

$$$$
>  <molecule>
Cc1cc(C)c(C2=C(OC(=O)CC(C)(C)C)C3(CCCC3)OC2=O)c(C)c1

>  <AC50>
inactive

$$$$
>  <molecule>
CC(C)CCCCCCCOP(=O)(Oc1ccccc1)Oc1ccccc1

>  <AC50>
inactive

$$$$
>  <molecule>
SCc1ccco1

>  <AC50>
inactive

$$$$
>  <molecule>
O=C(O)CCCc1ccc(N(CCCl)CCCl)cc1

>  <AC50>
27.3 µM (active)

$$$$
>  <molecule>
C=COCCCl

>  <AC50>
inactive

$$$$
>  <molecule>
CCCN(CC1CC1)c1c([N+](=O)[O-])cc(C(F)(F)F)cc1[N+](=O)[O-]

>  <AC50>
25.4 µM (active)

$$$$
>  <molecule>
Oc1ccc(Cl)cc1

>  <AC50>
inactive

$$$$
>  <molecule>
COC(=O)C1(O)c2ccccc2-c2ccccc21

>  <AC50>
inactive

$$$$
>  <molecule>
Nc1cc(Cl)cc(Cl)c1

>  <AC50>
inactive

$$$$
>  <molecule>
CC1OC(C)OC(C)O1 (configuration not stated)

>  <AC50>
inactive

$$$$
>  <molecule>
C=CC(=O)OCCO

>  <AC50>
46.4 µM (active)

$$$$
>  <molecule>
O=C1C=CC(=O)C=C1

>  <AC50>
73.5 µM (active)

$$$$
>  <molecule>
CC(C)C(=O)Cl

>  <AC50>
inactive

$$$$
>  <molecule>
CCCCOP(=O)(O)OCCCC

>  <AC50>
20.3 µM (active)

$$$$
>  <molecule>
CC(=O)/C=C/c1ccccc1

>  <AC50>
85.1 µM (active)

$$$$
>  <molecule>
C=CC(=O)OCCCCOC(=O)C=C

>  <AC50>
24.2 µM (active)

$$$$
>  <molecule>
CCC(Br)(CC)C(=O)NC(N)=O

>  <AC50>
inactive

$$$$
>  <molecule>
O=C(O)COc1ccccc1

>  <AC50>
inactive

$$$$
